# System: K4 kissing-loop RNA reporter
# protocol_summary: apparent KD of K4 kissing-loop reporter; higher = weaker reporter binding
# test_settings: Eterna round: R107; input ligand: tryptophan 2.4 mM
test_readout: apparent KD of K4 kissing-loop reporter (nM)
One number for each entry, in nM.

Recorded results for 3 sequences are shown here.
{"ordered_residues": "GGAGCAGUGAUGUUGCUUGUAAUGCAUUCAGAGGAUAUUCGUUUGGGAAGAAGGCUGAAUCGUUCUUCGAGUGAUGUUCGAGGAU [Same State FMN A GF 16]", "tested_on": "K4 kissing-loop RNA reporter", "obs_value": 138}
{"ordered_residues": "UUUAAAUAUAGUGAUGUUAUAUAACAAUGACGAGGACCGGUACGGCCGCCACUCGAGAGAGAUAAUGGUCGUUCGAAUCGAACGC [AstrosSSTryA#6]", "tested_on": "K4 kissing-loop RNA reporter", "obs_value": 410}
{"ordered_residues": "AUCCAUAGUGAUGUUGUGAGCGGAGGCACCAAGGAUAUUGCCAGCCCAAGAAGGUGGGUCCCACACACCAGGCAUACAAGUCCGG [theeternabot_exclusion_KL_FMN_A_43]", "tested_on": "K4 kissing-loop RNA reporter", "obs_value": 837}

Fill in apparent KD of K4 kissing-loop reporter for each of the 3 sequences listed.
1. UGACAUUGCUCAGAUACCAGACAUGAGCAUCAGCCAUGUACCAAGAAAACGUACAUAAAUGUCCCUUGGCAGCUGAGCAAUGUCU [TheoBX 10]
2. AGACUACUGAUAGGAUAUAACAUACUAGCUCGUAUACCAAAGGUAUACGAGCUCCUUCUAGUGAUGUUAGAAGGGUCGGUAGUCA [Omei KL FMN B Exc B v4]
3. GGCACUUUUGGUAGAAACCAUCUACCUCUAUAGGAUAUGCCGAAAGGCAGAAGGAUAGACCUACAGAGUGAUGUUCUGCGUGCCU

Reply |
1: 63.8; 2: 102; 3: 503

----------
Provide the recorded apparent KD of MS2 coat protein for the entries that follow.
# System: MS2 coat protein
# protocol_summary: apparent KD of MS2 coat protein; designed switch direction (-1 OFF switch, 1 ON switch): -1; higher = weaker reporter binding
# test_settings: Eterna round: R95; input ligand: microRNA oligo, concentration not stated
Give bare numbers, in nM.

Worked examples follow.
{"ordered_residues": "GUGAGACAUGAGGAUCACCCAUGUGAGGAUAUCCGAAGGACCAAAUUAAGAAUAGAAGGGAGAAGGCACAUAAA [Exclusion 1 V6] (puzzle: Exclusion 1)", "apparent KD of MS2 coat protein [nM]": 68.4}
{"ordered_residues": "CUAGAUCAUUGGAUCUAGUACAUGAGGAUCACCCAUGUGACGAGUUACAUGUUAUAUAAGCUUUUUGCUCGUCAUUU [AK 1] (puzzle: Sensor v3, turn-off variant 1)", "apparent KD of MS2 coat protein [nM]": 81.1}

Lab note: each sequence below needs its apparent KD of MS2 coat protein filled in.
1. CUUUUGUGAGGAUAUCAGUAGUAAUACAAUAGUAUUACUACUGAGAAGGUACAUGAGGAUCACCCAUGUUCCUC [Ex4 344 Omei mod 4] (puzzle: Exclusion 4)
2. AAGUACCGUCACGAUAGUGAUGGUACAACAGGCAGUGAAACAUGAGGAUCACCCAUGUCCUCAAUUGCUCGUCUUAU [Sensor 3 - 77] (puzzle: Sensor v3, turn-off variant 2)
3. AAAGACAGAGGAUAUGCACGCCGACCCGGGCGGGAAGUCGGACAUGAGGAUCACCCAUGUAGAAGGCUGAGAAA [Exclss2-VII] (puzzle: Exclusion 2)

Reply |
[17.9, 192, 10.5]

----------
# System: K4 kissing-loop RNA reporter;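 further: bound reporter read as fluorescence of individual clusters on recovered sequencing chips by microscopy, with normalized cluster intensities fitted with a binding model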
# protocol_summary: apparent KD of K4 kissing-loop reporter; higher = weaker reporter binding
# test_settings: Eterna round: R107; input ligand: theophylline 20 uM
test_readout: apparent KD of K4 kissing-loop reporter (nM)
One number for each entry, in nM.

{"ordered_residues": "GCCGUAGAUUGAAGGAGCGCUAGUCUACGAUGACACACAGUGAUGUUGUGCGUGAUUUCAUAGCAGGUAGGUCGCAAUCUACGGC", "obs_value": 186}
{"ordered_residues": "AGACUACUGACAGGAUAUAACAUCCUAGUCGUAUACCGAAAGGUAUACGAUUCCCUUCUAGUGAUGUUAGAAGGGUCGGUAGUCA [Omei KL FMN B Exc B v13]", "obs_value": 98.9}
{"ordered_residues": "AAGUAAUGUAUAGAUUAUAUACAUUAAACAGAGGAUAUGCAUUAUUGCAGAAGGCUGAAUGCAGUGAUGUUGCAAUAAUUAUUUA [JR_SSFMNA_Sub002]", "obs_value": 297}
{"ordered_residues": "CCGGAUUAUGCGGCCGCCACUGAGAAAUUGGAGGUACGCCCUCCCGAUAGUGAUGUUAUCCAUUACAGGACCGGGCAUCUCCUCU [theeternabot_sameState_KL_Trp_B_23]", "obs_value": 500}
{"ordered_residues": "GAUAAAUUGAUGCGUAGUGAUGCACGGGAAGGAGCGCGUUUUUUCGCAGGUAGGUCGCCCGACUGCGCGUUUCGAGUGAUGUUCG [5.)]", "obs_value": 197}
{"ordered_residues": "AGACUACUGACAGGAUAUGGCAUCCUGGUCGUAUACCGAAAGGUAUACGAUUUUCUUCUAGUGAUGUUAGAAGGGUCGGUAGUCA [Omei KL FMN B Exc B v15]", "obs_value": 89.2}
{"ordered_residues": "UUUUUGGUUUAGAGUGAUGUUCCUUGUAUUCGAGGACCGGUACGGCCGCCACUCGAAUAGAAAAGAAAAGAAAAGAGUGAUGUUU [BDazzled - #3 SS Tryptophan A]", "obs_value": 356}
{"ordered_residues": "AAACUUGCAGUGAUGUUGCAAGUAGGUGAUACCAGCAUCGAAAGAUGCCCUUGGCAGCACCAACACUGUAAGUAAGUAUCACCAA [(H1)-(H2)-(T1)-(T2)-(H)'-(T)'_Design2]", "obs_value": 139}
{"ordered_residues": "AAGAGCUAGGCGGCCGCCACUAGAUGUGAACACAUACAAACCAGUGAUGUUGGUAUGAUGGACAGUAGGACCGGGCCUAGCUGAA [Exclusion - Tryptophan B (Freestyle 10)]", "obs_value": 1350}
{"ordered_residues": "GCCAGUGAUGUUGGCAUUUCGAGCCAUGAAGGAGCGCACGGAAGUGCAGGUAGGUCGCAUGGUACUUAGGAUAUUAUCCUAAGUA [Antearxe]", "obs_value": 178}

// batch mode: one apparent KD of K4 kissing-loop reporter value per listed entry
1. GGAUCCACCAGUGAUGUUGGAGAAAACUUCAAGGAUAUGACGAAAGUCAGAAGGUGAUAGACUGGACAAAGUCCGGUCGGAUCCA [FmnA 19 U29+A57]
2. AGUGAUGUAUGGCGGUUUGUCACUUAUAAUCAGGAUAUAUAAACAAAUAGAAGGGAUGGCGGAGUGAUGUUCCGCCGGCCGCCAU [FMN A Exl V5]
3. UGUGUUUACCUGACUCAGUGAUGUUGAGAAGGAGCGUGAGAAGGCACAGGUAGGUCGCUCAACCUAAAUUCAGGUGAGCACUAAA

Reply |
527
172
193

For every item below, please supply its apparent KD of K4 kissing-loop reporter.
1. CACCAUGAAUUCUCUAGGAGUGAUGUUUUUCGAGGACCGGUACGGCCGCCACUCGGACGAGGACCGUGGGAGCGGCGAACCGACU [ddfgmullin]
2. CGAGUGAUGUUCGUUUUUUACUUUUUUUGACAGGAUAUGCGGAAACGCAGAAGGGUCACCUUUGAGUUAAAAGAAGUUAUUUUUU [Ex FMN A 18]
3. CGAAUGGAACUAUUGAACAUUUGUAUUGGCAAGGAUAUCGGGCUAUCGAGAAGGUGCUAUUUGGGCAGUGAUGUUGCCGAUUUAA [theeternabot_sameState_KL_FMN_A_10]
4. AACUGUCAAGGCCAACAUUACUGAGGUGAUACCAGCAUCGAAAGAUGCCCUUGGCAGCACCGACUUGCAGUGAUGUUGCAAGUAA [BrourdMod 12 - Jieux - Exclusion - Theophylline A]
5. AAGCCAGAGAUUGCUGCGGGUUCCAGAGAUACCAGCCGUAUUGAAGGCCCUUGGCAGCUCGAGUGAUGUUCGAGCCGUCUCUAGC [Bisore]
6. UGCCGGAAGGCGAGCGCUCCCACUCCGGAAGGAGCGCCCGUAAGGGCAGGUAGGUCGCCGGAGUGAUGUUCCGGUGGAGGGCUCG [#2 Exclusion - Arginine A Attempt #22 (Inspired by Omei)]
7. AAGUGAUGUUGUAGUGAUGUUGUGAUGUUGCAGGAUAUAUAGUGAUGUAGAAGGGUAAGUACUGUUUUUUUUUUUGAGUGAUGUU [ookooyzrmullin]
8. GGUUUAUAGGAGGAUACCAGUACGGAUAAAGUACAUUAAUAGUAGAGUGAUGUUCUAAAGUACCCUUGGCAGCUUAGAUUAAGUU [ExTheophylB.I]

Reply |
1. 334
2. 271
3. 90.9
4. 370
5. 123
6. 185
7. 67.5
8. 209

Batch of 2 sequences: report apparent KD of K4 kissing-loop reporter for each.
1. AGAACUGUCUUGGAUACCAGUGAUGUUGGUAUCGAUGUGUGAGUGCAAAGCGUCCCAGAGUGCCCUUGGCAGCUAAGACUGUUCA [#16 K4 Theophylline B Exclusion]
2. UGAUAGGACAGAAGGAGCGGUAGUGAUGUUACCAAAAGUAUAAGGUGUCAAAAGACACCCUGCCAGGUAGGUCGCUGUCCUAUCU

Reply |
[261, 198]
